target_under_test: Neu5Ac(a2-3)Gal(b1-4)[Fuc(a1-3)]GlcNAc(b1-6)[Gal(b1-3)]GalNAc
method_notes: glycan array binding signal (z-score within array); higher = stronger binding
stated_conditions: glycan notation: IUPAC condensed, linker removed
About 410 targets per protein were measured; listed, in parts, are those with the strongest signals and a random draw of the rest.
Kindly state glycan array binding signal (z-score) for each of the entries shown.
Respond with the number and no other words.

glycan array binding signal (z-score) lookup needed for BC2LB (Burholderia cenocepacia), B4EH85_BURCJ (protein) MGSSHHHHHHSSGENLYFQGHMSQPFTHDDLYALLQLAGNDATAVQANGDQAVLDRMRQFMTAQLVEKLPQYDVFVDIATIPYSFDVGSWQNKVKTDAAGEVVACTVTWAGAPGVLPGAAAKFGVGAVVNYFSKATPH , thanks. -0.247

glycan array binding signal (z-score) lookup needed for SefD (Salmonella enterica), Q9L6K6 (protein) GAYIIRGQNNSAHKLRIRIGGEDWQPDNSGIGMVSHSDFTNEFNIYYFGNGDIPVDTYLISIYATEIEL , thanks. -0.092

glycan array binding signal (z-score) lookup needed for SAG3 (Toxoplasma gondii), Q9BJ39 (protein) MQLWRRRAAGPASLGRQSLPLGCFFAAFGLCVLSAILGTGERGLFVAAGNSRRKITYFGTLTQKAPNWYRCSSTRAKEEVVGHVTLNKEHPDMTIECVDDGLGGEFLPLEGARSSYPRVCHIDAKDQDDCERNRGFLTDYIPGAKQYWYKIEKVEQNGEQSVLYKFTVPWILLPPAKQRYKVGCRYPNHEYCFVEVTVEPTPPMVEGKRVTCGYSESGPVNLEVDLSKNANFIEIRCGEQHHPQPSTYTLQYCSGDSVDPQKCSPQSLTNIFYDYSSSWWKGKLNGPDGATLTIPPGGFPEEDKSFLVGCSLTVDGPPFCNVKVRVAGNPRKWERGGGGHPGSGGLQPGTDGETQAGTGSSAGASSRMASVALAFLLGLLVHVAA , thanks. 3.05
